Molecular target: Cathepsin D (Cat D) (Homo sapiens)
Sequence (P07339 65-412, species assumed): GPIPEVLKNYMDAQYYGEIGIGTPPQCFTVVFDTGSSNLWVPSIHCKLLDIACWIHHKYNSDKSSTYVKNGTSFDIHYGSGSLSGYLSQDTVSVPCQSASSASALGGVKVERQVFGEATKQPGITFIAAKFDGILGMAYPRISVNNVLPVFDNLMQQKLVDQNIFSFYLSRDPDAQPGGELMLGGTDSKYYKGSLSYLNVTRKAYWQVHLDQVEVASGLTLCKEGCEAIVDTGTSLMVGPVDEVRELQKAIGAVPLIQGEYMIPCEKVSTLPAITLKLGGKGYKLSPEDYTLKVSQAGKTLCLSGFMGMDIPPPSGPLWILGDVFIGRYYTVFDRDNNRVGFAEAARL
Assay: In vitro enzymatic Cathepsin D (Cat D) FRET assay
Type: biochemical
Conditions: read-out: CatD IC50
Description: In Vitro Enzymatic Cathepsin D (Cat D) FRET (Fluorescence Resonance Energy Transfer) Assay Recombinant Cat D was expressed in CHO cells. The assay buffer for CathepsinD is 0.05 M citrate pH 3.5, 10% DMSO final, 5 mM CHAPS. […] The FRET assay is terminated with by addition of Tris buffer, which raises the pH to neutrality, and the fluorescence is determined. […] Proteolytic cleavage of the FRET substrate releases quenching of fluorescence (Cat D excitation 500 nm and emission 580 nm). […]
Measure: IC50 (µM)
Respond with the bare value in µM.

Please review the entries below; each comes with its answer.
1) COc1cnc(C(=O)Nc2ccc3c(c2)[C@@]2(C)N=C(N)C(C)(C)S(=O)(=O)[C@H]2CCC3)cn1 :: 1890
2) COc1cnc(C(=O)Nc2ccc3c(c2)[C@@]2(C)N=C(N)C(C)(C)S(=O)(=O)[C@@H]2CCC3)c(C)c1 :: 2980
3) COc1cnc(C(=O)Nc2ccc3c(c2)[C@@]2(C)N=C(N)C(C)(C)S(=O)(=O)[C@@H]2CCC3)cn1 :: 340
4) COc1cnc2c(Nc3ccc4c(c3)[C@@]3(C)N=C(N)C(C)(C)S(=O)(=O)[C@@H]3CCO4)ncc(F)c2c1 :: 314
5) Cc1cc(Cl)cnc1C(=O)Nc1ccc2c(c1)[C@@]1(C)N=C(N)C(C)(C)S(=O)(=O)[C@@H]1C[C@H](C)O2 :: 191
6) CC#CC(C)Oc1cnc(C(=O)Nc2ccc3c(c2)[C@@]2(C)N=C(N)C(C)(C)S(=O)(=O)[C@@H]2CCO3)cn1 (mixture of isomers) :: 689

Input: Can you share its IC50? I mean this compound: CC1(C)C(N)=N[C@]2(C)c3cc(NC(=O)c4cc5ccccc5cn4)ccc3OCC[C@H]2S1(=O)=O
Output: 1080

Input: Can you share its IC50? I mean this compound: CC#C[C@H](C)Oc1cnc(C(=O)Nc2ccc3c(c2)[C@@]2(C)N=C(N)C(C)(C)S(=O)(=O)[C@@H]2CCO3)cn1
Output: 1970

Input: Can you share its IC50? I mean this compound: Cc1cc(Cl)cnc1C(=O)Nc1ccc2c(c1)[C@@]1(C)N=C(N)C(C)(C)S(=O)(=O)[C@H]1CCC2
Output: 757

Input: Can you share its IC50? I mean this compound: Cc1cc(Cl)cnc1C(=O)Nc1ccc2c(c1)[C@@]1(C)N=C(N)C(C)(C)S(=O)(=O)[C@@H]1C[C@@H](C)O2
Output: 90.4

Input: Can you share its IC50? I mean this compound: Cc1cc(Cl)cnc1C(=O)Nc1ccc2c(c1)[C@@]1(C)N=C(N)C(C)(C)S(=O)(=O)[C@H]1C[C@H](C)O2
Output: 44

Input: Can you share its IC50? I mean this compound: CCc1ccc(C(=O)Nc2ccc3c(c2)[C@@]2(C)N=C(N)C(C)(C)S(=O)(=O)[C@@H]2CCO3)nc1
Output: 1370
